# TEST_CONDITIONS: in acetone, 293.25 K
PROPERTY: solubility (mole fraction)

stdin: What value of solubility (mole fraction) has been reported for the following compound? `CC[C@H](C)C(=O)O[C@H]1C[C@@H](C)C=C2C=C[C@H](C)[C@H](CC[C@@H]3C[C@@H](O)CC(=O)O3)[C@H]21`
stdout: 0.0104

* * *

# TEST_CONDITIONS: in acetone, 278.65 K
PROPERTY: solubility (mole fraction)
Output: the number by itself.

stdin: What value of solubility (mole fraction) has been reported for the following molecule? `CC[C@H](C)C(=O)O[C@H]1C[C@@H](C)C=C2C=C[C@H](C)[C@H](CC[C@@H]3C[C@@H](O)CC(=O)O3)[C@H]21`
stdout: 0.00637
